# EXPERIMENTAL SYSTEM: Insulin-degrading enzyme (Homo sapiens)
# ASSAY INFO: cellular IDE Abeta-cleavage inhibition – fluorescence polarization, HEK cells, FAbetaB substrate, primary screen (AID 434962);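 further: IDE supplied by intact live HEK cells; FP after avidin binding of uncleaved biotin substrate so inhibition keeps polarization high; 0% = DMSO wells and 100% = 60 µM reference IDE inhibitor Ii1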
# EXPERIMENTAL CONTEXT: at 5.59 µM, active compounds read high
The campaign covered roughly 320,000 compounds. About 1,300 (0.41%) were called active. The list comes from a sample in which actives are over-represented; it also holds close analogues and randomly drawn compounds.

- CHEMICAL STRUCTURE: "Cn1c(NC(=O)c2ccco2)c(-c2ccccc2Cl)c(=O)c2ccccc21"
  inhibition / %: -1.57
- CHEMICAL STRUCTURE: "Cc1ccc(NC(=O)C2CCN(S(=O)(=O)c3ccc4c(c3)NC(=O)CO4)CC2)cc1C"
  inhibition / %: -0.04
- CHEMICAL STRUCTURE: "COc1ccc(/C=C(\\NC(=O)c2ccccc2)C(=O)NCCN2CCOCC2)cc1OC"
  inhibition / %: 0.14
- CHEMICAL STRUCTURE: "O=C(/C=C/c1ccccc1)Oc1coc(CSc2ncccn2)cc1=O"
  inhibition / %: 4.39
- CHEMICAL STRUCTURE: "COc1ccc(C)cc1NC(=O)c1cc(-c2ccccc2)nc2c1cnn2C(C)C"
  inhibition / %: 1.05
- CHEMICAL STRUCTURE: "CN1C(C)(C)CC(NC(=O)CCC(=O)NC2CC(C)(C)N(C)C(C)(C)C2)CC1(C)C"
  inhibition / %: 0.6
- CHEMICAL STRUCTURE: "CCc1nn(CCCC(=O)Nc2ccc(C)c(C)c2)c(=O)c2cc3occc3n12"
  inhibition / %: 1.46
- CHEMICAL STRUCTURE: "N#C/C(=C\\c1ccc(-c2cccc([N+](=O)[O-])c2)o1)C(=O)NCCN1CCOCC1"
  inhibition / %: -0.08
- CHEMICAL STRUCTURE: "N#C/C(=C/c1ccc(N2CCOCC2)o1)C(=O)N1CCOCC1"
  inhibition / %: 14.4
- CHEMICAL STRUCTURE: "Cc1noc(C)c1S(=O)(=O)N(C)Cc1ccccc1"
  inhibition / %: 1.11

* * *

# EXPERIMENTAL SYSTEM: Insulin-degrading enzyme (Homo sapiens) (UniProt P14735)
# Sequence (P14735 whole entry, looked up): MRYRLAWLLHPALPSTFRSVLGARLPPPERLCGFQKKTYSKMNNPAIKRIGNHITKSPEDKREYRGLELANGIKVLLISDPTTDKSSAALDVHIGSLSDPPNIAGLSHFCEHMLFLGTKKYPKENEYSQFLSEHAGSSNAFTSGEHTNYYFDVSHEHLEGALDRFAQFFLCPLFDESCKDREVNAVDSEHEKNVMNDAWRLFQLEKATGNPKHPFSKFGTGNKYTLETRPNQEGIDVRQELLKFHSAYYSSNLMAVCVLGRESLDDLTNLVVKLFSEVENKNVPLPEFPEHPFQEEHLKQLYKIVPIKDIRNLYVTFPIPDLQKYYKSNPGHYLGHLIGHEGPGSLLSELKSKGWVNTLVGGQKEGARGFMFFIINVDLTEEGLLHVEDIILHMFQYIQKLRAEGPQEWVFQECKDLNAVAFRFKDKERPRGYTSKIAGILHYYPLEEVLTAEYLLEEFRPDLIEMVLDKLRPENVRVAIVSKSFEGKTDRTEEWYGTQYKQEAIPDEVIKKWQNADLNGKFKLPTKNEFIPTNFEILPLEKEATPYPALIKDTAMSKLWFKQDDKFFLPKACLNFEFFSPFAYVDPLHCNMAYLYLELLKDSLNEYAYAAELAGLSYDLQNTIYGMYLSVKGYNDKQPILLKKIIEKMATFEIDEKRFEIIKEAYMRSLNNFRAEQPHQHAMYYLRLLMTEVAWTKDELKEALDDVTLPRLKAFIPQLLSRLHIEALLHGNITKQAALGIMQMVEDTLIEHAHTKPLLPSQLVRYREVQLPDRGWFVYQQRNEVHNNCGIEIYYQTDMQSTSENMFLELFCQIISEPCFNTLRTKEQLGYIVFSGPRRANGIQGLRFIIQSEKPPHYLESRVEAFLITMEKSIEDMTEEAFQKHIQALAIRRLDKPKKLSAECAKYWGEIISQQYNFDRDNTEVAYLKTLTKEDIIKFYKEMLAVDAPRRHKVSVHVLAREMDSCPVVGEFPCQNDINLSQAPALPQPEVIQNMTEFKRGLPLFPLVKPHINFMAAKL
# ASSAY INFO: cellular IDE Abeta-cleavage inhibition – fluorescence polarization, HEK cells, FAbetaB substrate, primary screen (AID 434962);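 further: IDE supplied by intact live HEK cells; FP after avidin binding of uncleaved biotin substrate so inhibition keeps polarization high; 0% = DMSO wells and 100% = 60 µM reference IDE inhibitor Ii1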
# EXPERIMENTAL CONTEXT: at 5.59 µM, active compounds read high
Screen size: about 320,000 compounds; about 1,300 (0.41%) were called active. This is one part of a sample in which actives are shown more often than they occur.
Where inhibition equals or exceeds 7%, the correct label is yes; where it does not, the label is no.

- MOLECULE: "O=C(O)c1ccc2c(c1)C(=O)N(c1ccc(/C=C/C(=O)c3ccccc3)cc1)C2=O"
  EXPERIMENTAL SYSTEM: "Insulin-degrading enzyme (Homo sapiens) (UniProt P14735)"
  CATEGORY: "yes"
- MOLECULE: "CC(=O)Nc1ccc(/C=C/C(=O)c2ccccc2)cc1"
  EXPERIMENTAL SYSTEM: "Insulin-degrading enzyme (Homo sapiens) (UniProt P14735)"
  CATEGORY: "no"
- MOLECULE: "CCC(=C/c1sc2ccc3ccccc3c2[n+]1C)/C=C1\\Sc2ccc3ccccc3c2N1C"
  EXPERIMENTAL SYSTEM: "Insulin-degrading enzyme (Homo sapiens) (UniProt P14735)"
  CATEGORY: "yes"
- MOLECULE: "N#CC1=C(N)Oc2c(sc3ccccc23)C1c1ccco1 (stereo unspecified)"
  EXPERIMENTAL SYSTEM: "Insulin-degrading enzyme (Homo sapiens) (UniProt P14735)"
  CATEGORY: "yes"

* * *

# EXPERIMENTAL SYSTEM: Insulin-degrading enzyme (Homo sapiens)
# ASSAY INFO: cellular IDE Abeta-cleavage inhibition – fluorescence polarization, HEK cells, FAbetaB substrate, primary screen (AID 434962);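 further: IDE supplied by intact live HEK cells; FP after avidin binding of uncleaved biotin substrate so inhibition keeps polarization high; 0% = DMSO wells and 100% = 60 µM reference IDE inhibitor Ii1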
# EXPERIMENTAL CONTEXT: at 5.59 µM
Out of some 320,000 compounds screened, about 1,300 (0.41%) were called active.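 Rule for the calls: active = percent inhibition above the average of all tested compounds plus 3 SD, set per screening campaign (cut at about 16% in these data); inactive = the rest.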 Shown is part of a subset that was picked to be rich in actives.
Possible outcomes: TRUE for active, FALSE for inactive

- CHEMICAL STRUCTURE: "Cc1ccc2nc(/C(C#N)=C\\c3ccc(OC(=O)c4cccs4)cc3)[nH]c2c1"
  EXPERIMENTAL SYSTEM: "Insulin-degrading enzyme (Homo sapiens)"
  CATEGORY: "FALSE"
- CHEMICAL STRUCTURE: "CCCc1nc(SCC(=O)Nc2ccc(S(=O)(=O)N(C)C)cc2)c2ccccc2n1"
  EXPERIMENTAL SYSTEM: "Insulin-degrading enzyme (Homo sapiens)"
  CATEGORY: "TRUE"
- CHEMICAL STRUCTURE: "CCCNC(=O)CSc1nc(Cc2ccccc2)nc2ccccc12"
  EXPERIMENTAL SYSTEM: "Insulin-degrading enzyme (Homo sapiens)"
  CATEGORY: "FALSE"
- CHEMICAL STRUCTURE: "N#C/C(=C(/O)COc1cccc2ccccc12)c1nc2ccccc2[nH]1"
  EXPERIMENTAL SYSTEM: "Insulin-degrading enzyme (Homo sapiens)"
  CATEGORY: "FALSE"
- CHEMICAL STRUCTURE: "CCN(CC(=O)Nc1c(F)cccc1F)C(=O)C1CCC1"
  EXPERIMENTAL SYSTEM: "Insulin-degrading enzyme (Homo sapiens)"
  CATEGORY: "FALSE"
- CHEMICAL STRUCTURE: "Cc1cc2[nH]ncc2cc1NC(=S)NC(=O)c1ccccc1"
  EXPERIMENTAL SYSTEM: "Insulin-degrading enzyme (Homo sapiens)"
  CATEGORY: "FALSE"

* * *

# EXPERIMENTAL SYSTEM: Insulin-degrading enzyme (Homo sapiens) (UniProt P14735)
# ASSAY INFO: cellular IDE Abeta-cleavage inhibition – fluorescence polarization, HEK cells, FAbetaB substrate, primary screen (AID 434962);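 further: IDE supplied by intact live HEK cells; FP after avidin binding of uncleaved biotin substrate so inhibition keeps polarization high; 0% = DMSO wells and 100% = 60 µM reference IDE inhibitor Ii1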
# EXPERIMENTAL CONTEXT: at 5.59 µM
Out of some 320,000 compounds screened, about 1,300 (0.41%) were called active.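 Rule for the calls: active = percent inhibition above the average of all tested compounds plus 3 SD, set per screening campaign (cut at about 16% in these data); inactive = the rest.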 The full list was thinned out, with actives kept by preference.
Possible outcomes: TRUE = active, FALSE = inactive

- COMPOUND: "CCCC1CCC(=NNC(=S)NCCc2ccccc2)CC1 (configuration not stated)"
  CATEGORY: "FALSE"
- COMPOUND: "COc1ccc(N2CCN(C(=O)/C(C#N)=C/c3ccccc3)CC2)cc1"
  CATEGORY: "TRUE"
- COMPOUND: "COc1ccc(-c2onc3ccc(C(C)=O)cc23)cc1"
  CATEGORY: "FALSE"
- COMPOUND: "COc1ccc2c(c1)c1nc3n(c(=O)c1n2CC(=O)Nc1ccccc1)CCS3"
  CATEGORY: "FALSE"
- COMPOUND: "O=C(C1CCN(S(=O)(=O)Cc2ccccc2)CC1)N1CCCc2ccccc21"
  CATEGORY: "FALSE"
- COMPOUND: "Cc1ccc(S(=O)(=O)N2CCN(C(=O)COC(=O)CNC(=O)c3ccc(C(C)(C)C)cc3)CC2)c(C)c1"
  CATEGORY: "FALSE"
- COMPOUND: "CC(C)(C)OC(=O)N[C@H](C(=O)OC(C)(C)C)c1ccc(Br)cc1"
  CATEGORY: "FALSE"
- COMPOUND: "Oc1ccc(-c2onc3ccc(Cl)cc23)cc1"
  CATEGORY: "TRUE"
- COMPOUND: "Nc1c(C(=O)c2cccs2)sc2nsc(SCCN3CCCCC3)c12"
  CATEGORY: "TRUE"
- COMPOUND: "Cc1c(C)c2ccc(OCC(=O)N3CCC(C(=O)O)CC3)c(C)c2oc1=O"
  CATEGORY: "FALSE"
- COMPOUND: "Cc1cc(=O)oc2c1ccc1ccccc12"
  CATEGORY: "FALSE"
- COMPOUND: "COc1ccc(CCNC(=O)CC2SC(=Nc3cc(C)cc(C)c3)NC2=O)cc1OC (configuration not stated)"
  CATEGORY: "FALSE"
- COMPOUND: "C/C(=C/c1ccccc1)C(=O)N1CCN(c2ccccc2)CC1"
  CATEGORY: "FALSE"
- COMPOUND: "CCN1/C(=C/c2ccc3ccc(C)cc3[n+]2CC)Sc2ccccc21"
  CATEGORY: "TRUE"
- COMPOUND: "CCc1ccc(CNC(=O)C2CC(=O)N(CCc3ccc(C)cc3)C2)cc1 (configuration not stated)"
  CATEGORY: "FALSE"
- COMPOUND: "CN(C(=O)COC(=O)c1cc(-c2ccco2)nc2ccccc12)C1CCS(=O)(=O)C1 (configuration not stated)"
  CATEGORY: "FALSE"
- COMPOUND: "CCN1/C(=C\\c2ccc3ccccc3[n+]2CC)Sc2cc(C)ccc21"
  CATEGORY: "TRUE"
- COMPOUND: "COc1ccc2c(-c3ccccc3)cc(SCC(=O)N(C)C3CCS(=O)(=O)C3)nc2c1 (configuration not stated)"
  CATEGORY: "FALSE"
- COMPOUND: "COc1cccc(CNC(=O)Cn2c(=O)oc3cc(S(=O)(=O)N4CCCCC4)ccc32)c1"
  CATEGORY: "FALSE"
- COMPOUND: "CCOC(=O)/C(C#N)=C/c1ccc(N2CCN(Cc3ccccc3)CC2)cc1"
  CATEGORY: "FALSE"
- COMPOUND: "CCOC(=O)c1c(C)n(C)c2ccc(OC)c(NS(=O)(=O)CC)c12"
  CATEGORY: "FALSE"
- COMPOUND: "COc1ccc(C2C=C(c3ccc(Br)cc3)Nc3nc(NS(C)(=O)=O)nn32)cc1 (configuration not stated)"
  CATEGORY: "TRUE"
